System: NCI/ADR-RES ovarian
method: NCI-60 one-dose screen, 48 h (100 = growth as untreated, 0 = no growth, -100 = all killed)
protocolConditions: 10 µM
The panel holds about 83,000 compounds, 20% with a hit somewhere; the sample as a whole holds those more often.
testReadout: growth (%)
The reply should contain only the number, in %.

See these solved cases before continuing.
smilesrepresentation=CC1=C2C(=C[C@@](C)(COCOCCCl)[C@@H]2O)C(=O)[C@](C)(O)C12CC2 systemundertest="NCI/ADR-RES ovarian" testreadout=growth valueunits=% resultnumber=-61.7
smilesrepresentation=COc1ccc(C(=O)Nc2ccc(-c3ccc4c(c3)NC(=O)/C4=C\c3ccc[nH]3)cc2)cc1 systemundertest="NCI/ADR-RES ovarian" testreadout=growth valueunits=% resultnumber=-42.8
smilesrepresentation=O=c1oc2ccccc2cc1-c1csc(N=Nc2c(O)[nH]c3ccc(Br)cc23)n1 systemundertest="NCI/ADR-RES ovarian" testreadout=growth valueunits=% resultnumber=76.2

input: Could you share which growth value was measured for Cc1ccc2nc(COc3ccc(C(=O)NNC(=S)NCCc4ccccc4)cc3)[nH]c2c1 ?
output: 75.4

input: Repeat for the following molecule: COc1ccc(-c2nc(S(=O)(=O)c3ccc(C)cc3)c(S(C)(=O)=O)o2)cc1
output: -62.4

---

Test system: NCI-H322M lung
method: NCI-60 one-dose screen, 48 h
protocolConditions: 10 µM
Procedure: Growth inhibition of the NCI-H322M human Non-Small Cell Lung tumor cell line is measured as a screen for anti-cancer activity. Cells are grown in 96 well plates and exposed to the test compound for 48 hours. Compounds are tested at a single concentration, which is 10^-5 M for most compounds. The reported endpoint is percent growth (GI% or GIPRCNT), where numbers from 0 - 100% represent growth inhibition, and numbers from -100% - 0 represent cell death. […]
This is part of a sample that, as a whole, favours compounds with a hit. Of some 83,000 tested, about 20% had one in any assay. The source made the active and inactive calls. Rule for the calls: active = growth percent below 10; inactive = the rest.
API: response.call in active, inactive

Please review the entries below; each comes with its answer.
molecule=Cc1ccc(/C=C(\C#N)n2nnc3c(F)cccc32)cc1 grouplabel=inactive
molecule=N#Cc1ccc(-c2nn(-c3ccc(C(=O)O)cc3)cc2CNc2cc(Cl)cc(C(F)(F)F)c2)cc1 grouplabel=inactive
molecule=C/C(=C\CC/C=C(\C)CC/C=C(\C)CC[C@@H](O)C(C)(C)O)CC/C=C(\C)CC[C@@H](O)C(C)(C)O grouplabel=inactive
molecule=CC1=C2C(=C[C@@](C)(CO)[C@@H]2O)/C(=N\N)[C@](C)(O)C12CC2 grouplabel=active
molecule=O=C(Nc1ccc(OCc2ccccc2)cc1)Nc1ccc(Cl)c(C(F)(F)F)c1 grouplabel=active

input: Identify the outcome logged in this assay for the molecule shown: CCC(C)S(=O)(=O)c1oc(-c2ccc(C)cc2)nc1S(=O)(=O)c1ccccc1 (stereo unspecified)
output: inactive

input: Repeat for the following molecule: COc1ccc(C(C)=C(c2ccc(OCCCN(C)C)cc2)c2ccc(OCCCN(C)C)cc2)cc1
output: active

input: Repeat for the following molecule: Cc1ccc(-c2ccc(SCC(=O)Nc3ccc(Cl)c(C(F)(F)F)c3)nn2)cc1
output: inactive

input: Repeat for the following molecule: COc1ccc2nc(Cl)c(-c3cc(-c4ccccc4)nc(N)n3)cc2c1
output: inactive

input: Repeat for the following molecule: CC(C)c1ccc(C(=O)Nc2sc3c(c2C(N)=O)CCC(=O)C3=O)cc1
output: inactive

input: Repeat for the following molecule: Clc1ccc2c(N/N=C/c3c[nH]c4ccc(Br)cc34)ccnc2c1
output: active

input: Repeat for the following molecule: COc1cccc(C(N)=Nc2ccc(OCCCCCCn3cncn3)cc2)c1
output: inactive

input: Repeat for the following molecule: Clc1cccc(N/N=C/c2c[nH]c3ccccc23)n1
output: inactive

input: Repeat for the following molecule: CCN1CCN(c2ccc(NC(=O)Nc3ccc(-c4cc(C(=O)NC)c5ncccc5n4)cc3)cc2C(F)(F)F)CC1
output: active

input: Repeat for the following molecule: COc1ccc(C(=O)Nc2ccc(-c3ccc4c(c3)NC(=O)/C4=C\c3ccc[nH]3)cc2)cc1
output: inactive

input: Repeat for the following molecule: CCCn1c(=O)c2[nH]c(-c3ccc(OCc4nc5ccc(C)cc5[nH]4)cc3)nc2n(CCC)c1=O
output: inactive

input: Repeat for the following molecule: COc1ccc(/C=C/C(=O)c2ccc(S(=O)(=O)NCCNc3nc(Nc4ccc(F)cc4)nc(N(C)C)n3)cc2)cc1
output: inactive

input: Repeat for the following molecule: CO[C@@H]1CSS[C@H]1Cn1nc(-c2ccc(Oc3ccccc3)cc2)c2c(N)ncnc21
output: inactive

input: Repeat for the following molecule: COc1ccc(CN2[C@H](C(=O)NCCCCCCC(=O)NO)Cc3c([nH]c4ccccc34)[C@H]2C2CC2)cc1
output: active

input: Repeat for the following molecule: CC(=O)Nc1ccc(-c2cn(-c3cccc(C(=O)Nc4cccc(OC(F)(F)F)c4)c3)nn2)cn1
output: inactive

input: Repeat for the following molecule: COc1ccc([C@H]2C(C(=O)c3ccc(Cl)cc3)C3(N[C@@H]2c2ccccc2)C(=O)Nc2ccc(Br)cc23)cc1 (stereo partly specified)
output: inactive

input: Repeat for the following molecule: Nc1nc(-c2ccccc2)cc(-c2cc3ccccc3nc2Cl)n1
output: inactive

input: Repeat for the following molecule: Cc1noc2c(Cc3ccccc3)nn(CC(=O)N/N=C/c3ccc(F)cc3)c(=O)c12
output: inactive

input: Repeat for the following molecule: COC1=C[C@@]23CCC(=O)N2CCc2cc4c(cc2[C@H]3[C@H]1OC(=O)C(C)(C)O)OCO4
output: inactive

input: Repeat for the following molecule: O=C(Nc1ccccc1)Nc1nc2ccccc2s1
output: inactive

input: Repeat for the following molecule: COc1ccc(OC)c(/C=N/NC(=O)c2ccc3nc(-c4ccc(Cl)cc4)[nH]c3c2)c1
output: inactive

input: Repeat for the following molecule: O=C1CCC(N2Cc3c(C#CCCCNC(=O)c4ccc(NC(=O)[C@@H]5NC6(CCCCC6)[C@@]6(C(=O)Nc7cc(Cl)ccc76)[C@H]5c5cccc(Cl)c5F)cc4)cccc3C2=O)C(=O)N1 (stereo partly specified)
output: inactive

input: Repeat for the following molecule: [2H]C([2H])([2H])Oc1ccc2ncc(C#Cc3cncc(C(=O)Nc4ccc(CN5CCN(C)CC5)c(C(F)(F)F)c4)c3)n2n1
output: active

---

Test system: MDA-MB-435 melanoma
method: NCI-60 one-dose screen, 48 h (100 = growth as untreated, 0 = no growth, -100 = all killed)
protocolConditions: 10 µM
About 83,000 compounds went through this panel and 20% of them were active in at least one assay; those are over-represented in the sample as a whole.
Label MET when growth is at or above -30%; otherwise label NOT MET.

compound=O=c1[nH][nH]c(Nc2ccccc2)c1N=Nc1ccc(F)cc1 grouplabel=MET
compound=O=C(CSc1nnc(-c2ccc3nc(-c4ccccc4)[nH]c3c2)o1)Nc1ccc(Cl)cc1 grouplabel=MET
compound=COc1ccc2c3nc4cc(C)c(C)cc4nc3n(CCN(C)C)c2c1 grouplabel="NOT MET"

input: Threshold query (growth >= -30%) on COc1ccc2nc(Cl)c(-c3cc(-c4ccccc4)nc(=S)[nH]3)cc2c1
output: MET

input: Repeat for the following compound: O=C1Nc2cc(Cl)ccc2/C1=C/c1ccc(OCc2ccc(Br)cc2F)cc1
output: MET

input: Repeat for the following compound: COc1ccc(-c2nc(Nc3ccccc3S(N)(=O)=O)c3ccccc3n2)cc1
output: MET

input: Repeat for the following compound: CCN1CCN(c2ccc(NC(=O)Nc3ccc(-c4cc(C(=O)NC(C)C)c5ncccc5n4)cc3)cc2C(F)(F)F)CC1
output: NOT MET

input: Repeat for the following compound: COc1ccc(-c2nc(S(=O)(=O)c3ccccc3)c(S(C)(=O)=O)o2)cc1
output: NOT MET

input: Repeat for the following compound: COc1ccc([C@H]2C(C(=O)c3ccc(Cl)cc3)C3(N[C@@H]2c2ccccc2)C(=O)Nc2ccc(Cl)cc23)cc1 (some centres undefined)
output: NOT MET

---

Test system: NCI-H226 lung
method: NCI-60 one-dose screen, 48 h (100 = growth as untreated, 0 = no growth, -100 = all killed)
protocolConditions: 10 µM
Compounds without any hit were thinned out: in the full panel of roughly 83,000, 20% have a hit.
testReadout: growth (%)
The reply should contain only the number, in %.

compound=O=C(CSc1nnc(-c2c[nH]c3ccccc23)n1-c1ccccc1)c1ccccc1 resultnumber=4.48
compound=N#Cc1c(NC(=O)c2ccc(C(F)(F)F)c(Cl)c2)sc2c1CCC(=O)C2 resultnumber=-26.4
compound="COC(=O)C(Cc1ccc(O)c(O)c1)NC(=O)C(CSC/C=C(\\C)CCCC(C)CCCC(C)CCCC(C)C)NC(C)=O (centres undefined)" resultnumber=30.3

input: Could you share which growth value was measured for Cc1cc(=O)oc2cc(OCCCCOc3ccc(/C=C/C(=O)Nc4cccc(Cl)c4)cc3)ccc12 ?
output: 35.9

input: Repeat for the following compound: CO[C@@H]1CSS[C@H]1Cn1nc(-c2ccc(Oc3ccccc3)cc2)c2c(N)ncnc21
output: 24.7

input: Repeat for the following compound: O=C(CNc1nc(-c2ccccc2)cs1)Nc1cccc(Cl)c1
output: 44.8

input: Repeat for the following compound: COc1cc2c(cc1OC)CN(CCCCOc1cc(O)c3c(=O)cc(-c4ccccc4)oc3c1)CC2
output: 63.5

input: Repeat for the following compound: CC(C)NC(=O)c1cc(-c2ccc(NC(=O)Nc3ccc(N4CCN(C)CC4)c(C(F)(F)F)c3)cc2)nc2cccnc12
output: -69.1

input: Repeat for the following compound: C=CC(=O)Nc1ccc(C(=O)/C=C/c2ccc(N(C)CCF)cc2)c(O)c1
output: -11

These entries and their values trace back to PubChem BioAssay (NCI).
